STUDY SYSTEM: COX-1 (Homo sapiens)
TEST METHOD NOTES: Microsomal assay, COX-1
Type: biochemical
# key: entry, value: IC50
Kindly provide the numeric value in µM only, without the unit symbol.

The cases that follow already have their IC50 on record.
[[record]]
compound = "Cc1ccc(Oc2nc(-c3ccc(S(C)(=O)=O)cc3)cc(C(F)(F)F)n2)cc1 [Example 6]"
readout_type = "IC50"
test_value = 3.75

[[record]]
compound = "CS(=O)(=O)c1ccc(-c2cc(C(F)(F)F)nc(Oc3cncc(Cl)c3)n2)cc1 [Example 7]"
readout_type = "IC50"
test_value = 79.9


Query: IC50; subject: CS(=O)(=O)c1ccc(-c2cc(C(F)(F)F)nc(OC3CCCCC3)n2)cc1 [Example 8] 1.86

====

STUDY SYSTEM: COX-1 (Homo sapiens, UniProt P23219)
Sequence (P23219 24-599): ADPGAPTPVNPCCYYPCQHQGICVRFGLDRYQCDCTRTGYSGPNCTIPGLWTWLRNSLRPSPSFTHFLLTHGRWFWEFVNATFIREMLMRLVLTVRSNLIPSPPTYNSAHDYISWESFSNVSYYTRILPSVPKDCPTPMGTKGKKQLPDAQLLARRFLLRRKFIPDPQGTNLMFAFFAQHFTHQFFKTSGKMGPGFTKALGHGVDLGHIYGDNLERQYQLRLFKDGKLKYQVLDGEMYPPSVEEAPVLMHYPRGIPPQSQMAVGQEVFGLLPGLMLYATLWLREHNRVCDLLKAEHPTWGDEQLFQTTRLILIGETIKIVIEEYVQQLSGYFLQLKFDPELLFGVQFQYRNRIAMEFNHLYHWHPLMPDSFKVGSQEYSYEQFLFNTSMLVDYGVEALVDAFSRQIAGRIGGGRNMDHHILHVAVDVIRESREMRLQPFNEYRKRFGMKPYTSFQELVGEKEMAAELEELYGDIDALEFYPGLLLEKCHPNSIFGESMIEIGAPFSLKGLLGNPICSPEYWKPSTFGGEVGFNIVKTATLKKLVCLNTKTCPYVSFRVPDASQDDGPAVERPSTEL
TEST METHOD NOTES: Cell based assay, COS cells stably transfected with human COX-1, PGE2 release
Design: expressed in transfected cells; host or cells: COS cells, stably transfected
READOUT TYPE: pIC50
// pIC50 here means minus log10 of the molar concentration (mol/L)

The cases that follow already have their pIC50 on record.
[[record]]
chemical_string = "CS(=O)(=O)c1ccc(-c2cc(C(F)(F)F)nc(Oc3ccc(F)cc3)n2)cc1"
study_system = "COX-1 (Homo sapiens, UniProt P23219)"
readout_type = "pIC50"
test_value = 4.09

[[record]]
chemical_string = "COc1ccc(Oc2nc(-c3ccc(S(C)(=O)=O)cc3)cc(C(F)(F)F)n2)cc1"
study_system = "COX-1 (Homo sapiens, UniProt P23219)"
readout_type = "pIC50"
test_value = 5.53


Query: pIC50; subject: "CS(=O)(=O)c1ccc(-c2cc(C(F)(F)F)nc(Oc3ccc(F)c(F)c3)n2)cc1" 5.01

Query: pIC50; subject: "CS(=O)(=O)c1ccc(-c2cc(C(F)(F)F)nc(Oc3ccc(Br)cc3)n2)cc1" 4.21

====

STUDY SYSTEM: microsomal h-COX2 (Homo sapiens)
Construct: made in house; host or cells: baculovirus infected SF9 cells (microsomal preparation)
Sequence (P35354 18-604): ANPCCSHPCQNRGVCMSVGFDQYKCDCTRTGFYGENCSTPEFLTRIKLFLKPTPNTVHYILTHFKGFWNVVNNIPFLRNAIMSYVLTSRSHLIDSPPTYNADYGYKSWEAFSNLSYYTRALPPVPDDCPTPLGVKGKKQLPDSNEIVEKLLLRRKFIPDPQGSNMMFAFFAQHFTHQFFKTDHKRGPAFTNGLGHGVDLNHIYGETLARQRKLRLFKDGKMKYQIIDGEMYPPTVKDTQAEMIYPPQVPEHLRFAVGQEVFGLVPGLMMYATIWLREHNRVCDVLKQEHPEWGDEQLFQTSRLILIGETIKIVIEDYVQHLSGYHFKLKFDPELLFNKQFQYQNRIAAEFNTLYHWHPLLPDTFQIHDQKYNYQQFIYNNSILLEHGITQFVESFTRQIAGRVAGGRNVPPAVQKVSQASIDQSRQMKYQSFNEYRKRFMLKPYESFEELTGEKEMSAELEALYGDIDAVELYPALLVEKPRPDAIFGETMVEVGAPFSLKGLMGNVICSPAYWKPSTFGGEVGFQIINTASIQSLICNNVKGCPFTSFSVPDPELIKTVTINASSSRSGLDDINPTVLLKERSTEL
TEST METHOD NOTES: Microsomal assay, h-COX2 microsomal preparation from baculovirus infected SF9 cells
Type: biochemical
READOUT TYPE: pIC50
// pIC50 here means minus log10 of the molar concentration (mol/L)

Please tell me: pIC50 of "CS(=O)(=O)c1ccc(-c2cc(C(F)(F)F)nc(OCC3CCCC3)n2)cc1" , system microsomal h-COX2 (Homo sapiens)? 7.66
